System: Protein deacetylase HDAC6 (Homo sapiens, UniProt Q9UBN7) | Read-out: IC50 | Origin: multiple publications

Sample answers from the record:
Which IC50 is reported with Protein deacetylase HDAC6 (Homo sapiens, UniProt Q9UBN7) for this entry: `O=C(NO)c1ccc2c(c1)CCN(Cc1cccc3nsnc13)C2` ?
100 to 500 nM

Lab note: need IC50 for `C[C@@H](NC(=O)c1cc2ccccc2s1)c1ncc(C(=O)NO)s1` on Protein deacetylase HDAC6 (Homo sapiens, UniProt Q9UBN7), anyone have it?
< 100 nM

Hi! What's the reported IC50 for `O=C(NO)c1ccc(NC2(c3cc(F)ccc3F)CCOCC2)cc1` on Protein deacetylase HDAC6 (Homo sapiens, UniProt Q9UBN7)?
0.1 to 1 nM

Report IC50 for `O=C(NO)c1ccc2ccn(CCOc3cccc(CN4CCOCC4)c3)c2c1` tested on Protein deacetylase HDAC6 (Homo sapiens, UniProt Q9UBN7).
1000 to 10000 nM

Lab request: please report IC50 under test system Protein deacetylase HDAC6 (Homo sapiens, UniProt Q9UBN7) for `O=C(CCCCCCN(c1ccccn1)c1cc2ccccc2cn1)NO`
2 nM

More entries:
# value lookup — system Protein deacetylase HDAC6 (Homo sapiens, UniProt Q9UBN7), readout IC50, item Cc1ccc(NC(=O)NC(C)c2ccc(C(=O)NO)s2)cc1C (stereo not drawn)
< 100 nM

Enter reported IC50 observed with Protein deacetylase HDAC6 (Homo sapiens, UniProt Q9UBN7) for `COc1cc(Cl)ccc1C(=O)N1Cc2ccc(C(=O)NO)cc2C1`
< 50 nM

Please tell me: IC50 of `Cn1cccc1C(=O)N1CCc2sc(C(=O)NO)cc2C1` , system Protein deacetylase HDAC6 (Homo sapiens, UniProt Q9UBN7)?
< 50 nM

# returns recorded IC50 (system: Protein deacetylase HDAC6 (Homo sapiens, UniProt Q9UBN7)) for `O=C(NO)c1cc2c(s1)CN(C(=O)c1c(F)c(F)cc(F)c1F)CC2`
< 50 nM

Param readout= IC50; system= Protein deacetylase HDAC6 (Homo sapiens, UniProt Q9UBN7); entry= `O=C(NO)c1ccc2c(c1)CCN(C(=O)Nc1ccc(Cc3ccccc3)cc1)C2` ; returns value.
< 50 nM

Lab request: please report IC50 under test system Protein deacetylase HDAC6 (Homo sapiens, UniProt Q9UBN7) for `O=C(NO)c1ccc2c(c1)CCN(S(=O)(=O)c1ccc(Oc3ccncc3)cc1)C2`
100 to 500 nM

====

pIC50: −log10 of the molar value.
A compilation of pIC50 values for Protein deacetylase HDAC6 (Homo sapiens) from the published literature.

Before answering, review these 2 worked examples.
Value wanted: pIC50 (Protein deacetylase HDAC6 (Homo sapiens)) of entry CC(NC(=O)Nc1cc(C(F)(F)F)ccc1F)c1ccc(C(=O)NO)s1 (stereo not drawn)
> 7.00

Missing value: pIC50, Protein deacetylase HDAC6 (Homo sapiens), entry `CC(C)(C)c1ccc(CC(=O)N2CCc3cc(C(=O)NO)sc3C2)cc1` . Fill in?
> 7.30

New cases:
What measured pIC50 is associated with `O=C(CCCCCCN(c1cnccn1)c1ncnc2occc12)NO` on Protein deacetylase HDAC6 (Homo sapiens)?
≥ 7.00

Return pIC50 measured with Protein deacetylase HDAC6 (Homo sapiens) given this molecule: `O=C(NO)c1ccc2c(c1)CCN(S(=O)(=O)Cc1ccccc1)C2`
7.00 to 7.30

Report pIC50 for `O=C(/C=C/c1ccccc1Oc1ccncc1)NO` tested on Protein deacetylase HDAC6 (Homo sapiens).
< 5.00

Write down the reported pIC50 of `CC(C)(C)OC(=O)Nc1ccc2ncc(C(=O)NO)cc2c1` , test system: Protein deacetylase HDAC6 (Homo sapiens).
> 7.00
